All values here come from paper PMC2918268.

# study system: ERβ (Homo sapiens, UniProt Q92731)
# Sequence (Q92731 264-498 limits assumed): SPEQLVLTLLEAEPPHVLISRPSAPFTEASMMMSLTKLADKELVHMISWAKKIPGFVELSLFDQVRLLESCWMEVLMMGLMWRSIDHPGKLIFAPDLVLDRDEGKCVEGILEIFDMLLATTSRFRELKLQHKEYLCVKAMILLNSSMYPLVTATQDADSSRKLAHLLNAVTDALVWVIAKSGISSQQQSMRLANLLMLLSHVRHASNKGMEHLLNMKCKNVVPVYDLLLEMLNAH

compound smiles	IC50, nM
C[C@@H]1Cc2cc(O)ccc2[C@H]2CC[C@]3(C)/C(=C/COCCN(C)C)CC[C@H]3[C@H]12	500
